These measurements were taken from paper PMC3582512.

Molecular target: M. mazei topo VI (Methanosarcina mazei, UniProt Q8PUB7+Q8PUB8)
Construct: His tag; made in house
Sequence (Q8PUB8 whole entry): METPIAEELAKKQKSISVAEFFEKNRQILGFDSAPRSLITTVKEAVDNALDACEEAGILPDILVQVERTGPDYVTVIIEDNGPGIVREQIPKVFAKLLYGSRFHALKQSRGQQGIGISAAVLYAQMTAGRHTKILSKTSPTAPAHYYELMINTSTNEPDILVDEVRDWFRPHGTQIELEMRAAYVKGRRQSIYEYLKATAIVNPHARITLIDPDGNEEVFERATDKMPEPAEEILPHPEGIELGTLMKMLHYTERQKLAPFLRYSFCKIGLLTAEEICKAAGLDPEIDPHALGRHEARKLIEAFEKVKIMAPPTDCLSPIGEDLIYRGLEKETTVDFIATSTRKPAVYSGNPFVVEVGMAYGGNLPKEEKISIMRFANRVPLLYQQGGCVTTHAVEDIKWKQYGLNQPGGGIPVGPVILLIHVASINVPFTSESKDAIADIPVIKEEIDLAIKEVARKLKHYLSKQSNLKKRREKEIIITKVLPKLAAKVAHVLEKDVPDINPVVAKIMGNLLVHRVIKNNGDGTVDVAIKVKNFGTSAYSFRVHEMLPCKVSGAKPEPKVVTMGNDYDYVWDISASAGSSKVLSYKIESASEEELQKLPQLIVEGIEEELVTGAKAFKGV
Sequence (Q8PUB7 whole entry): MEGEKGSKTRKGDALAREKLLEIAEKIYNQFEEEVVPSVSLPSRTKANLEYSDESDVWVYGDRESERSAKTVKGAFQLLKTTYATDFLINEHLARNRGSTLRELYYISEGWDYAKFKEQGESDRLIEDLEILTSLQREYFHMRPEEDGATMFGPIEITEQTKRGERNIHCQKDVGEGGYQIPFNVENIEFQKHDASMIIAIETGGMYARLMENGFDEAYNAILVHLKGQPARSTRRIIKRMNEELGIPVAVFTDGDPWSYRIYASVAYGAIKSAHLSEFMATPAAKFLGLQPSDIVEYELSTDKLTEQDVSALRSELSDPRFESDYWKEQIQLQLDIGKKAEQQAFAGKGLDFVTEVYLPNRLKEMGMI
Test: Agarose gel-based DNA relaxation assay
Assay type: biochemical
Conditions: summary of mechanistic tests with M. mazei and S. shibatae topo VI
Readout Type: Mechanism (Topo VI)

Compound | Measured On | Mechanism (Topo VI)
Nc1c2ccccc2nc2ccccc12 [9-Aminoacridne, 9-aminoacridine] | M. mazei topo VI (Methanosarcina mazei, UniProt Q8PUB7+Q8PUB8) | Prevents DNA cleavage
CCN(CC)CCCC(C)Nc1c2ccc(Cl)cc2nc2ccc(OC)cc12 (stereo not drawn) [Quinacrine] | M. mazei topo VI (Methanosarcina mazei, UniProt Q8PUB7+Q8PUB8) | Prevents DNA cleavage
Cc1ccc(C(=O)Nc2ccc(S(=O)(=O)O)c3cc(S(=O)(=O)O)cc(S(=O)(=O)O)c23)cc1NC(=O)c1cccc(NC(=O)Nc2cccc(C(=O)Nc3cc(C(=O)Nc4ccc(S(=O)(=O)O)c5cc(S(=O)(=O)O)cc(S(=O)(=O)O)c45)ccc3C)c2)c1 [Suramin] | M. mazei topo VI (Methanosarcina mazei, UniProt Q8PUB7+Q8PUB8) | Blocks DNA binding
COc1cc(NS(C)(=O)=O)ccc1Nc1c2ccccc2nc2ccccc12 [m-Amsacrine] | M. mazei topo VI (Methanosarcina mazei, UniProt Q8PUB7+Q8PUB8) | Prevents DNA cleavage

Alright, here's another compound for you.
## Task Using the record for O=C1c2ccccc2C(=O)c2c(O)c(O)cc(O)c21 [Purpurin] , report its Mechanism (Topo VI).
## Result Blocks DNA binding
